// triglyceride lowering activity lookup, one value per entry
- Tested on: Rattus norvegicus
- test.method.notes: In vivo Triglyceride lowering activity at dose as 0.03 % of the diet
- Format: functional
Please reply with the bare figure in % and do not write the unit itself.

Example entries begin here.
CCCCCCCCCCC(Cl)CCCCCNc1ccc(C(=O)OCC)cc1 (stereo not drawn) ... 84
C[Si](C)(C)CCCNc1ccc(C(=O)[O-])cc1.[Na+] ... 85
CCCCCCCCCCC(N)CCCCCNc1ccc(C(=O)[O-])cc1.[Na+] (stereo not drawn) ... 107
O=C(O)c1ccc(NCCCCCCCCCCCNc2ccc(C(=O)O)cc2)cc1 ... 85
CCOC(=O)c1ccc(NC(=O)CCCCCCCCCCCCCCCBr)cc1 ... 94

Next compound, please.
Give the measured triglyceride lowering activity of O=C(O)c1ccc(NCCCCCCCCCCCSc2ccc(C(=O)O)cc2)cc1 . 92

====

Below, each of the compounds is paired with its reported inhibition value.
- measured.on: Sterol O-acyltransferase 1 (Rattus norvegicus) (UniProt O70536)
- test.method.notes: In vitro inhibitory activity against acyl coenzyme A:cholesterol acyltransferase
- Parameters: concentration or dose not given beside the values
- condition.details: concentration not given here

Here's what some known entries look like.
COCCCCCCCCCCCCCCCCNc1ccc(C(=O)O)cc1 ... < 43%
CCCCCCCCCCC(N)CCCCCNc1ccc(C(=O)OCC)cc1 (stereo not given) ... 0%
CCOC(=O)c1ccc(NCCCCCCCCCCCCC(C)(C)C)cc1 ... 7%
CCOC(=O)c1ccc(NC(C)C(=O)OCC)cc1 (stereo not given) ... 23%
O=C(O)c1ccc(NCCCCCCCCCCCSc2ccc(C(=O)O)cc2)cc1 ... < 29%
CCOC(=O)c1ccc(NCCCCCCCCCCCCCCCC(=O)OC)cc1 ... 0%

Suppose we examine the compound CCCCCCCCCCC(S)CCCCCNc1ccc(C(=O)O)cc1 (stereo not given) ; what inhibition value has been reported? < 79%

Endpoint output: inhibition of CCOC(=O)c1ccc(NCCCCCCCCCCCBr)cc1 . Value? < 61%

Quick one: inhibition of O=C(O)c1ccc(NCCCCCCCCCCCOc2ccc(C(=O)O)cc2)cc1 ? < 36%

Need inhibition of CCCCCCCCCCC(C#N)CCCCCNc1ccc(C(=O)OCC)cc1 (stereo not given) , thanks. < 69%

====

Below, each entry is listed with its recorded inhibition.
- measured.on: Sterol O-acyltransferase 1 (Rattus norvegicus)
- Sequence (whole entry): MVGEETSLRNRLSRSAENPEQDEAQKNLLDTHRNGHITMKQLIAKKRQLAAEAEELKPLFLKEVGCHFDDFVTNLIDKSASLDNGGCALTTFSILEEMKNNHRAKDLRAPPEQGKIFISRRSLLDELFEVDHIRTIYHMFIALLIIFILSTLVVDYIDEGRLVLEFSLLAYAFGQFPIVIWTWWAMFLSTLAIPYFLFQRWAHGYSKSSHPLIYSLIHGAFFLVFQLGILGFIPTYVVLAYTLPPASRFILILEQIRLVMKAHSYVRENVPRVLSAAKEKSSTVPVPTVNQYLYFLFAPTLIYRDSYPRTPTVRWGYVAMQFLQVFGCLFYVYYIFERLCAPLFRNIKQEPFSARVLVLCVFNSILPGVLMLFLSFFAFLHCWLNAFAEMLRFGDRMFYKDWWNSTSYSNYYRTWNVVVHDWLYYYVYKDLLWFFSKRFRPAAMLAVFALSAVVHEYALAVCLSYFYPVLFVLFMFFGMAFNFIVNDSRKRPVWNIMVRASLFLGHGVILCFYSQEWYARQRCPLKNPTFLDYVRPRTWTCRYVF
- test.method.notes: In vitro inhibitory activity against acyl coenzyme A:cholesterol acyltransferase
- Parameters: concentration or dose not given beside the values
- condition.details: concentration not given here

CCCCCCCCCCCCCCC(C)Nc1ccc(C(=O)O)cc1 (stereo not drawn) ... < 51%
CCCC[S+]([O-])CCCCCCCCCCCNc1ccc(C(=O)O)cc1 (stereo not drawn) ... < 15%

# next molecule below
Param item = O=C(O)c1ccc(NCCCCCCCCCCCC2CCCCC2)cc1 ; retrieve measured inhibition. < 56%
